system: hGcgR (Homo sapiens, UniProt P47871)
Sequence (P47871 26-477): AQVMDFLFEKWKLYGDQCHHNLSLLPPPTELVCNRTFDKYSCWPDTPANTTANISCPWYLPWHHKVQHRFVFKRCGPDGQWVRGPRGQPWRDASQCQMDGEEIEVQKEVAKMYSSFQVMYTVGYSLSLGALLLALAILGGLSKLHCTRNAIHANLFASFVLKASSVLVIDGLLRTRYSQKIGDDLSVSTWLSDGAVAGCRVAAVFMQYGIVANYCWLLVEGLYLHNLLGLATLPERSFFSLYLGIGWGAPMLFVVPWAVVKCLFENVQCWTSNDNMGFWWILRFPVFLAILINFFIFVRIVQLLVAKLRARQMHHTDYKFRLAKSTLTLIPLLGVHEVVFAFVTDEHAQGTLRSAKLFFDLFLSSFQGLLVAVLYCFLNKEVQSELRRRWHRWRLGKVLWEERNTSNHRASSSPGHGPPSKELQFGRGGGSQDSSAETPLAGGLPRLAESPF
experimentSummary: Functional cAMP activation in the presence of 0.1% casein (no HSA);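 on Relative cAMP EC50, hGcgR: intracellular cAMP rise after 30 min at 37 °C, read by HTRF against a cAMP standard curve, scaled from buffer only (0%) to maximal control ligand response (100%)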
Format: cell-based
reportedConditions: read-out: Relative cAMP EC50, hGcgR
Starred links: 1 amine or outer side, 2 acyl side, 3 side chain; linkers in the order of their positions; H or OH if unused. Non-standard residues stand in square brackets, D forms with d. Groups on a side chain read outwards from the residue. No end group written: not given here. *: point of attachment. C18 diacid = O=C(O)CCCCCCCCCCCCCCCCC(=O)*; αMePhe(2-F) = C[C@](N)(Cc1ccccc1F)C(=O)O; γGlu = O=C(O)[C@H](CCC(=O)[*:2])N[*:1]; αMe4Pal = C[C@](N)(Cc1ccncc1)C(=O)O; αMeY = C[C@](N)(Cc1ccc(O)cc1)C(=O)O; 4Pal = N[C@@H](Cc1ccncc1)C(=O)O; αMeL = CC(C)C[C@](C)(N)C(=O)O; αMeS = C[C@](N)(CO)C(=O)O; Orn = NCCC[C@H](N)C(=O)O; AEEA = NCCOCCOCC(=O)O; Aib = CC(C)(N)C(=O)O
EC50 strictly less than 4 nM = 1. Otherwise -1.

Take a look at these entries with their results.
substance: H-Y[Aib]QGTFTSDFS[Orn][αMeL]LDKK([γGlu-γGlu-C18 diacid])AQ[Aib]AFIEYLLEGGPSSG[Aib]PPPGGS-NH2 [Example 771]
classLabel: -1
//
substance: H-Y[Aib]QGT[αMePhe(2-F)]TSD[4Pal]SI[αMeL]LDKK([γGlu-γGlu-C18 diacid])AQ[Aib]AFIEYLEEGGPSSGEPPPSGTGE-NH2 [Example 624]
classLabel: -1
//
substance: H-Y[Aib]QGT[αMePhe(2-F)]TSD[4Pal][αMeS]I[αMeL]LD[Orn]K([γGlu-Glu-C18 diacid])AQ[Aib][Orn]FI[dE][αMeY]LSEGGPSSGEPPPSGTEE-NH2 [Example 566]
classLabel: -1

Query string: Item H-Y[Aib]QGT[αMePhe(2-F)]TSD[4Pal][αMeS]I[αMeL]LD[Orn]K([γGlu-γGlu-C18 diacid])AQ[Aib][Orn]FI[dE][αMeY]LAEGGPSSGEPPPSGEEE-NH2 [Example 592] : EC50 beneath 4 nM, strictly?
Result string: -1

Query string: Item H-Y[Aib]QGT[αMePhe(2-F)]TSD[4Pal][αMeS]I[αMeL]LD[Orn]K([γGlu-γGlu-C18 diacid])AQ[Aib][Orn]FI[dE][αMeY]LSEGGPSSGEPPPSGTEE-NH2 [Example 561] : EC50 beneath 4 nM, strictly?
Result string: -1

Query string: Item Y[Aib]QGT[αMePhe(2-F)]TSD[4Pal][αMeS]I[αMeL]LD[Orn]K([AEEA-γGlu-C18 diacid])YQ[αMe4Pal]EFI[dE][αMeY]LVEGGPSSGAPPPSGS-NH2 [Example 767] : EC50 beneath 4 nM, strictly?
Result string: 1

====

system: hGIPR (Homo sapiens)
Sequence (P48546 22-466): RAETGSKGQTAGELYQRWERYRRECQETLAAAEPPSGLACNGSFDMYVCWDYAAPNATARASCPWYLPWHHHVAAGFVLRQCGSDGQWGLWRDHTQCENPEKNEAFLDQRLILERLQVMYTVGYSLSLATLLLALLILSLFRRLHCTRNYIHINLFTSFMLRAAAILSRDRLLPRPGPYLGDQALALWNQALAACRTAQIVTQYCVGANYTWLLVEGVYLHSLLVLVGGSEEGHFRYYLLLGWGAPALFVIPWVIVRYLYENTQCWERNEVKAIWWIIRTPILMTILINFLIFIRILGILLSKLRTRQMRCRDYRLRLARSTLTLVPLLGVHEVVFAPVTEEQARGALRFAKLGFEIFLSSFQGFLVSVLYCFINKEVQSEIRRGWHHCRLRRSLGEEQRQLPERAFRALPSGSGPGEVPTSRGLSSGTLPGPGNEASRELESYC
experimentSummary: Functional cAMP activation in the presence of 0.1% casein (no HSA);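 further: intracellular cAMP rise after 30 min at 37 °C read by HTRF against a standard curve, scaled between buffer alone (0%) and top control ligand concentration (100%), four-parameter fit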
Type: cell-based
reportedConditions: in the presence of 0.1% casein (no HSA); geometric mean; read-out: Relative cAMP EC50, hGIPR
Starred links: 1 amine or outer side, 2 acyl side, 3 side chain; linkers in the order of their positions; H or OH if unused. Non-standard residues stand in square brackets, D forms with d. Groups on a side chain read outwards from the residue. No end group written: not given here. *: point of attachment. C20 diacid = O=C(O)CCCCCCCCCCCCCCCCCCC(=O)*; C18 diacid = O=C(O)CCCCCCCCCCCCCCCCC(=O)*; γGlu = O=C(O)[C@H](CCC(=O)[*:2])N[*:1]; αMe4Pal = C[C@](N)(Cc1ccncc1)C(=O)O; αMeY = C[C@](N)(Cc1ccc(O)cc1)C(=O)O; αMeF = C[C@](N)(Cc1ccccc1)C(=O)O; 4Pal = N[C@@H](Cc1ccncc1)C(=O)O; αMeL = CC(C)C[C@](C)(N)C(=O)O; αMeS = C[C@](N)(CO)C(=O)O; Orn = NCCC[C@H](N)C(=O)O; AEEA = NCCOCCOCC(=O)O; Aib = CC(C)(N)C(=O)O
readoutKind: EC50 (nM)
The figure you give is taken to be in nM; do not add the unit.

The examples below pair each entry with its known result.
substance: H-Y[Aib]QGT[αMeF]TSD[4Pal][αMeS]I[αMeL]LD[Orn]K([AEEA-γGlu-C18 diacid])AQ[αMe4Pal]EFI[dE][αMeY]LIEGGPSSGAPPPSGSE-NH2 [Example 1166]
readoutKind: EC50
resultValue: 0.00999
//
substance: Y[Aib]QGTFTSDYSI[αMeL]LDKQAAK([AEEA-AEEA-γGlu-C20 diacid])QFIEYLIA[Aib]GPSSGEPPPSEG-NH2 [Example 349]
readoutKind: EC50
resultValue: 0.152

Next item in the queue.
Entry H-Y[Aib]QGTFTSD[4Pal]SQ[αMeL]LD[Orn]K([AEEA-γGlu-C18 diacid])AQ[αMe4Pal]QFIE[αMeY]LIEGGPSSGAPPPSGS-NH2 [Example 857] ; EC50 = 0.441
